The reported measurements were obtained from patent US9815796B2.

system-tested: UniProt B3VTJ2
run-description: PDE2 fluorescence polarization (IMAP FP) inhibition assay, rhesus enzyme
Format: biochemical, rhesus macaque
condition-description: Rhesus PDE2, Lab B; read-out: Rhesus PDE2 Ki (nM) - Lab B
metric: Ki (nM)

>>> df
                                   molecule   system_tested  metric  reported_value
0  C[C@@H](NC(=O)c1cc(=O)[nH]c(-c2ncccn2)n1)c1cc(F)c(C(F)(F)F)c(F)c1  UniProt B3VTJ2      Ki              33
1  CC[C@@H](NC(=O)c1cc(=O)[nH]c(Cc2ccc(OC)c(F)c2)n1)c1ccc(OC(F)(F)F)cc1  UniProt B3VTJ2      Ki             2.2
2  CC(C)c1ccc([C@H](NC(=O)c2cc(=O)[nH]c(C3CC3)n2)C2(C)CC2)cc1  UniProt B3VTJ2      Ki               2
3  C[C@@H](NC(=O)c1cc(=O)[nH]c(-c2ccccc2)n1)c1ccc(C(F)(F)F)c(F)c1F  UniProt B3VTJ2      Ki              17
4  Cc1nc(C(=O)N[C@H](C)c2cc(F)c(C(F)(F)F)cc2F)cc(=O)[nH]1  UniProt B3VTJ2      Ki             112
5  CC(NC(=O)c1cc(=O)[nH]c(-c2ccccc2)n1)c1ccc(-c2ccncc2)cc1 (stereo not shown)  UniProt B3VTJ2      Ki             319
6  COc1ccc(C(C)(C)c2nc(C(=O)N[C@@H](c3ccc(C(F)(F)F)c(F)c3)C3CC3)cc(=O)[nH]2)cc1  UniProt B3VTJ2      Ki             115
7  COc1cc(OC(F)(F)F)ccc1C(C)NC(=O)c1cc(=O)[nH]c(-c2ccccc2)n1 (stereo not shown)  UniProt B3VTJ2      Ki             9.6
8  COc1ccc(C(C)(C)c2nc(C(=O)N[C@@H](c3ccc(C(F)(F)F)cc3)C(C)(C)C)cc(=O)[nH]2)cc1  UniProt B3VTJ2      Ki              98
9  O=C(N[C@@H](c1ccc(S(F)(F)(F)(F)F)cc1)C1CC1)c1cc(=O)[nH]c(-c2ccccc2)n1  UniProt B3VTJ2      Ki             9.5

(1) COc1ccc(Cc2nc(C(=O)N[C@@H](c3ccc(SC(F)(F)F)c(F)c3)C(C)C)cc(=O)[nH]2)cc1
(2) CC(C)[C@@H](NC(=O)c1cc(=O)[nH]c(-c2ccccc2)n1)c1ccc(C(F)(F)F)c(F)c1
Q. Of 1 and 2 , which carries the smaller reported Ki figure? Answer by stating the label of the chosen item.
A. 1
(1: 1.2 nM, 2: 4.2 nM)

(1) COc1ccc(C(C)(C)c2nc(C(=O)N[C@@H](c3ccc(OC(F)(F)F)c(F)c3)C(C)C)cc(=O)[nH]2)cc1
(2) Cc1nc(C(=O)N[C@@H](c2ccc(OC(F)(F)F)cc2)C(C)(C)C)cc(=O)[nH]1
(3) COc1ccc(C(C)(C)c2nc(C(=O)N[C@@H](c3ccc(SC(F)(F)F)c(F)c3)C(C)C)cc(=O)[nH]2)cc1
Q. Hey, quick one: sort these by Ki, largest value first please. Dear reader, please state the labels in the requested order.
A. 1, 3, 2

* * *

system-tested: Rhesus PDE2A3 (Macaca mulatta)
run-description: PDE2 fluorescence polarization (IMAP FP) inhibition assay, rhesus enzyme
Assay type: biochemical, rhesus macaque
condition-description: Rhesus PDE2, Lab B; read-out: Rhesus PDE2 Ki (nM) - Lab B
metric: Ki

The following compounds have reported results that may help.
In [3]: df
Out[3]:
                         compound_structure  metric  reported_value
0  C[C@@H](NC(=O)c1cc(=O)[nH]c(-c2ccccc2)n1)c1ccc(C(F)(F)F)c2ccccc12      Ki        ~1970 nM
1  COc1ccc([C@H](C)NC(=O)c2cc(=O)[nH]c(-c3ccccc3)n2)cc1      Ki       ~11300 nM

// moving on: another record for Ki
Ki reading for O=C(N[C@@H]1CCCc2cc(C(F)(F)F)ccc21)c1cc(=O)[nH]c(-c2ncccn2)n1 : ~1430 nM

* * *

system-tested: Rhesus PDE2A3 (Macaca mulatta, UniProt B3VTJ2)
Sequence (B3VTJ2 1-941): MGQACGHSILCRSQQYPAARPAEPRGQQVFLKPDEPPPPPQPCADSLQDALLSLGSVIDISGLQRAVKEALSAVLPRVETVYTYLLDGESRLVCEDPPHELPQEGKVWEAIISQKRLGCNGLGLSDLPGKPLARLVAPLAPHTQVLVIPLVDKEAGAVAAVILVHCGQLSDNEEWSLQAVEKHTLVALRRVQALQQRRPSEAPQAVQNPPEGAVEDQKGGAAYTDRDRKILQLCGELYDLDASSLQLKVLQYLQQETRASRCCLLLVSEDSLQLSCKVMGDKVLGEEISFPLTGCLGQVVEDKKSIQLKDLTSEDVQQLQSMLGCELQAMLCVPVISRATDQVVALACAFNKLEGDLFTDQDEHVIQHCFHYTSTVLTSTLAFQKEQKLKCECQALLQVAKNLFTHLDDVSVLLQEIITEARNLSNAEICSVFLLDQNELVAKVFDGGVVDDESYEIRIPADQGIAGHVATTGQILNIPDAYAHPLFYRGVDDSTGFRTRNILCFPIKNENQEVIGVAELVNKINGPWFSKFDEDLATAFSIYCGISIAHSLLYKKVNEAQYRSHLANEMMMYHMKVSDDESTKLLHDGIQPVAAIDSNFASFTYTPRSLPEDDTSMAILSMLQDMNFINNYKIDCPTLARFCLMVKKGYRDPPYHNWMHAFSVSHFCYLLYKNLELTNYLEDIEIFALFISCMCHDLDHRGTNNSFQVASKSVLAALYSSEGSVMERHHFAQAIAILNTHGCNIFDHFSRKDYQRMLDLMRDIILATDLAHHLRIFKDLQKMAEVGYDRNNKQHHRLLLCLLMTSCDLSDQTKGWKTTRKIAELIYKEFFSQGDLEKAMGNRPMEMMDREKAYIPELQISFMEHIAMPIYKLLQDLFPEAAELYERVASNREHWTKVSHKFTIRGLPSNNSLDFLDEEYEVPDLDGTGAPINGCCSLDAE
run-description: PDE2 fluorescence polarization (IMAP FP) inhibition assay, rhesus enzyme
Type: biochemical, rhesus macaque
condition-description: Rhesus PDE2, Lab A; read-out: Rhesus PDE2 Ki (nM) - Lab A
metric: Ki (nM)

The following compounds have reported results that may help.
>>> df
                                   compound  metric  measurement_unit  reported_value
0  CC(C)c1nc(C(=O)N[C@H](C)c2ccc(C(F)(F)F)cc2)cc(=O)[nH]1 [Example 137]      Ki                nM             411
1  Cc1nc(C(=O)NC2(c3ccc(SC(F)(F)F)cc3)CC2)cc(=O)[nH]1 [Example 35]      Ki                nM              19
2  C[C@@H](NC(=O)c1cc(=O)[nH]c(C2CC2)n1)c1ccc(-c2ccccc2)cc1 [Example 144]      Ki                nM              16

(a) O=C(NC(CO)c1ccc(C(F)(F)F)cc1)c1cc(=O)[nH]c(-c2ccccc2)n1 (centres unmarked) [Example 185]
(b) COc1cc(CN(C)C(=O)c2cc(=O)[nH]c(C)n2)cc(OC)c1OC [Example 14]
Q. Of a and b , which carries the smaller reported Ki figure? Answer by stating the label of the chosen item.
A. a

* * *

system-tested: human PDE2A1 (Homo sapiens (Human))
Sequence (O00408 other isoform, or with tags, fused parts or gaps): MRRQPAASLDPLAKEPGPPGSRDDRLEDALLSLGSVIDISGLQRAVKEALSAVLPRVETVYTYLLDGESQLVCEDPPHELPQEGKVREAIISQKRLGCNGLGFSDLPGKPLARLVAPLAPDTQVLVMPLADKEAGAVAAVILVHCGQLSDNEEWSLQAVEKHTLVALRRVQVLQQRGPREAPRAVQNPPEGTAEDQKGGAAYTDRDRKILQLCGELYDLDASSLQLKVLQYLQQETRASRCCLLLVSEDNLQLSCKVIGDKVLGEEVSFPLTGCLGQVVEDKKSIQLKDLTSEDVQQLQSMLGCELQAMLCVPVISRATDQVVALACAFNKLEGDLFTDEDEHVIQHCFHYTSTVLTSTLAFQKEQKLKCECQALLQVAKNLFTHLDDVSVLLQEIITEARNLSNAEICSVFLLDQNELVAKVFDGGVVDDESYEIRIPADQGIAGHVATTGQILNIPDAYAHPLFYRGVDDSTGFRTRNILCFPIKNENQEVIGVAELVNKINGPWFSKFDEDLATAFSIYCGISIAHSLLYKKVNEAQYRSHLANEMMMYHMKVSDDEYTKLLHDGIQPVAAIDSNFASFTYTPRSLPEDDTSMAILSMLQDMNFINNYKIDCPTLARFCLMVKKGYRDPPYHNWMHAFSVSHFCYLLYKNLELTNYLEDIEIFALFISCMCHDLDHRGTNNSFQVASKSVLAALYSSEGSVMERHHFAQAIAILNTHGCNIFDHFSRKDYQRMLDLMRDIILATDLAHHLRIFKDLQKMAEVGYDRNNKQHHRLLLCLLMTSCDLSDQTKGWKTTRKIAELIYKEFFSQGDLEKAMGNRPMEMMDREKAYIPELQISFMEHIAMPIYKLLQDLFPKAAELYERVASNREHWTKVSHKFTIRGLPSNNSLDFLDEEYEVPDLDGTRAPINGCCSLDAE
run-description: IMAP FP PDE selectivity panel, human PDE2A1
Type: biochemical
condition-description: Human PDE2, Lab A; read-out: Human PDE2 Ki (nM) - Lab A
Experimental: Selectivity for PDE2, as compared to other PDE families, was assessed using the IMAP® technology. Human PDE 10A2 enzyme was prepared from cytosolic fractions of transiently transfected HEK cells. […] Assays for PDE 1 through 11 were performed in parallel at room temperature in 384-well microtiter plates with an incubation volume of 20.2 μL. […] The intrinsic PDE2 inhibitory activity of a compound which may be used in accordance with the present invention may be determined by these assays.
metric: Ki (nM)

The following molecules have reported results that may help.
>>> df
                                   molecule  metric  reported_value
0  O=C(NC1(c2ccc(SC(F)(F)F)cc2)CCC1)c1cc(=O)[nH]c(C2CC2)n1 [Example 204]      Ki              20
1  Cc1nc(C(=O)N[C@@H](c2ccc(C(F)(F)F)cc2)[C@@H](C)O)cc(=O)[nH]1 [Example 65]      Ki              18
2  CC[C@@H](NC(=O)c1cc(=O)[nH]c(COC)n1)c1ccc(OC(F)(F)F)cc1 [Example 119]      Ki              17
3  Cc1cc([C@@H](C)NC(=O)c2cc(=O)[nH]c(-c3ccccc3)n2)ccc1C(F)(F)F [Example 189]      Ki             9.7
4  C[C@@H](NC(=O)c1nc(C2CCC2)[nH]c(=O)c1C1CCC1)c1ccc(C(F)(F)F)cc1 [Example 335]      Ki            1220

(I) COc1cccc(Cc2nc(C(=O)N[C@H](C)c3ccc(C(F)(F)F)cc3)cc(=O)[nH]2)c1 [Example 140]
(II) CCc1nc(C(=O)N[C@H](C)c2ccc(C(F)(F)F)cc2)c(CC)c(=O)[nH]1 [Example 333]
(III) Cc1nc(C(=O)NC(C)c2ccc(C(C)(C)C)cc2)cc(=O)[nH]1 (single isomer, unassigned) [Example 309]
(IV) COc1ccc([C@@H](C)NC(=O)c2cc(=O)[nH]c(-c3ncccn3)n2)cc1 [Example 86]
Q. Hey, quick one: sort these by Ki, largest value first please. Dear reader, please state the labels in the requested order.
A. IV, II, III, I

* * *

system-tested: UniProt:O00408
run-description: IMAP FP PDE selectivity panel, human PDE2A1
Type: biochemical
condition-description: Human PDE2, Lab A; read-out: Human PDE2 Ki (nM) - Lab A
metric: Ki (nM)

(I) CC(C)c1ccc([C@@H](C)NC(=O)c2cc(=O)[nH]c(-c3ccccc3)n2)cc1 [Example 146]
(II) COCc1nc(C(=O)N[C@H](C)c2ccc(OC(F)(F)F)cc2)cc(=O)[nH]1 [Example 113]
(III) O=C(N[C@@H](c1ccc(C(F)(F)F)cc1)C1CC1)c1cc(=O)[nH]c(-c2ccccc2)n1 [Example 177]
(IV) Cc1cc(C(F)(F)F)ccc1C(C)NC(=O)c1cc(=O)[nH]c(-c2ccccc2)n1 (stereo not shown) [Example 173]
(V) Cc1nc(C(=O)NC(C)c2ccc(C(F)(F)F)cc2C)cc(=O)[nH]1 (stereo not shown) [Example 25]
Q. Order these by Ki, descending, and give the full ranking. Dear reader, please state the labels in the requested order.
A. V, IV, II, I, III

(P) CC[C@@H](NC(=O)c1cc(=O)[nH]c(-c2ncccn2)n1)c1ccc(OC(F)(F)F)cc1 [Example 106]
(Q) C[C@@H](NC(=O)c1cc(=O)[nH]c(C2CC2)n1)c1ccc(OC(F)(F)F)c(F)c1 [Example 296]
Q. Which has the higher Ki, P or Q ? Answer by stating the label of the chosen item.
A. P

(A) CC[C@@H](NC(=O)c1cc(=O)[nH]c(C2CC2)n1)c1ccc(OC(F)(F)F)c(F)c1 [Example 207]
(B) Cc1nc(C(=O)NC(C(=O)O)c2ccc(C(F)(F)F)cc2)cc(=O)[nH]1 (racemic) [Example 326]
Q. Of A and B , which carries the smaller reported Ki figure? Answer by stating the label of the chosen item.
A. A

(P) O=C(N[C@@H](c1ccc(C(F)(F)F)cc1)C1CC1)c1cc(=O)[nH]c(C2CC2)n1 [Example 213]
(Q) O=C(NC1(c2ccc(OC(F)(F)F)cc2)CC1)c1cc(=O)[nH]c(-c2ncccn2)n1 [Example 285]
(R) COc1ccc(Cc2nc(C(=O)N[C@H](C)c3ccc(C(F)(F)F)cc3)cc(=O)[nH]2)cc1OC [Example 4]
(S) O=C(NC1(c2ccc(SC(F)(F)F)cc2)CC1)c1cc(=O)[nH]c(-c2ccccc2)n1 [Example 159]
(T) C[C@@H](NC(=O)c1cc(=O)[nH]c(C2CC2)n1)c1ccc(C(F)(F)F)c(F)c1 [Example 234]
Q. Hey, quick one: sort these by Ki, largest value first please. Dear reader, please state the labels in the requested order.
A. Q, T, S, P, R
(Q: 46 nM, T: 18 nM, S: 4.9 nM, P: 3.3 nM, R: 0.52 nM)
